Attribution: ChEMBL document CHEMBL1165858

System: Aspergillus niger
procedure_details: Antibacterial activity against Aspergillus niger NCIM 545 after 72 hrs by disc diffusion method
Assay type: functional
recorded_metric: inhibition zone (IZ) (mm)
Numbers only, in mm.

Some solved cases for reference:
**Query** Provide value of inhibition zone (IZ) for this record tested with Aspergillus niger: `COc1cc(OC)cc(/C(Cl)=C/C=C/C(=O)c2c(O)cc(OC)cc2OC)c1`
**Result** 16

**Query** Now consider `COc1cc(O)c(C(=O)/C=C/C=C(\Cl)c2ccc(Cl)cc2Cl)c(OC)c1` .
**Result** 10

**Query** Now consider `COc1cc(O)c(C(=O)/C=C/C=C(\Cl)c2ccc(F)cc2)c(OC)c1` .
**Result** 17

**Query** Now consider `COc1cccc(/C(Cl)=C/C=C/C(=O)c2c(O)cc(OC)cc2OC)c1` .
**Result** 16

Here is the next item to consider.
**Query** Provide value of inhibition zone (IZ) for this record tested with Aspergillus niger: `COc1cc(O)c(C(=O)/C=C/C=C(\Cl)c2ccc(Br)cc2)c(OC)c1`
**Result** 14
